B1: TPR t1 (parent)
chain: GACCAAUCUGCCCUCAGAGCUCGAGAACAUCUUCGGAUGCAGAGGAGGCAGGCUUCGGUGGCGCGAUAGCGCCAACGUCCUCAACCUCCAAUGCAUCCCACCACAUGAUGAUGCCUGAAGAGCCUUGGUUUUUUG

# Variants of: B1
# methodSummary: polymerase ribozyme fitness, log enrichment relative to wild type (log ratio); higher = more active; in vitro selection for triplet polymerase activity
Listed below: polymerase ribozyme fitness (log ratio) values for each entry.
Give your answer as a number; write no unit.

Consider the reported polymerase ribozyme fitness (log ratio) for these variants:
- orderedResidues: "GACCAAUCUGCACUCAGAGCUCGAGAACAUCUUCGGAUGCAGAGGAGGCAGGCUUCGGUGGCGCGAUAACGCCAACGUCCUCAACCUCCAAUGCAUCCCACCACAUGAUGAUGCCUGAAGAGCCUUGGUUUUUUG [C12A G69A]"
  measured: -2.89
- orderedResidues: "GACCAAUCUGCCCUCAGAGCUCGAGAACAUCUUCGGAUGCAGAGGAGGCAGGCUUCGGUGGCGCGAUAUCGCCAACGUCCUCAACCACCAAUGCAUCCCACCACAUGAUGAUGCCUGAAGAGCCUUGGUUUUUUG [G69U U87A]"
  measured: 0.245

Now consider a different variant.
stdin: Can you share its polymerase ribozyme fitness (log ratio)? I mean this variant: GACCAAUCUGCCCUCAGAGCUCGAGAACUUCUUCGGAUGCACAGGAGGCAGGCUUCGGUGGCGCGGUAGCGCCAACGUCCUCAACCUCCAAUGCAUCCCACCACAUGAUGAUGCCUGAUGAGCCUUGGUUUUUUG [A29U G42C A66G A119U]
stdout: -4.64
